Known log10 of Kd of a selection of binders
biological target: T1, hPD-1-his (human, UniProt Q15116 25-167); assay: SPR Biacore T200, PD-1-his immobilised
T1 construct: domain: IgV domain; monomer in solution; biotin-labelled where captured by streptavidin; also called biotin-hPD-1-his
T1 sequence (Q15116 other isoform, or with tags, fused parts or gaps limits assumed): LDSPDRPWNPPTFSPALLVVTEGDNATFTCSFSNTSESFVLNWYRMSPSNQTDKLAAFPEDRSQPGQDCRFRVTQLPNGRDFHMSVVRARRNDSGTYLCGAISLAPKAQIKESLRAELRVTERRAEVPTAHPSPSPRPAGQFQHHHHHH
Each number you see is log10 of Kd, and the unit inside the log is nM.

Answered examples (6):
binder: 24H9 (antibody, human IgG1, V domains shown) VH: EVQLLESGGGLVQPGGSLRLSCAASGFTFSSYWMSWVRQAPGKGLEWVSAISGSGGSTYYADSVKGRFTISRDNSKNTLYLQMNSLRAEDTAVYYCASSPLQWVDVWGQGTTVTVSS VL: DIQMTQSPSSLSASVGDRVTITCRASQGISSWLAWYQQKPGKAPKLLIYSASSLQSGVPSRFSGSGSGTDFTLTISSLQPEDFATYYCQQANSFPFTFGPGTKVDIK
log10 of Kd: 1.14
--
binder: 38B2 (antibody, V domains shown, 24H9 derivative, IgG; also called 780_54; hPD1 Ab (38B2)) VH: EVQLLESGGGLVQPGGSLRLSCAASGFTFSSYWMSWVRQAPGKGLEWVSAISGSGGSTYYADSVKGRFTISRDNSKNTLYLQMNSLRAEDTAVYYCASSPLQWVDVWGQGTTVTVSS VL: DIQMTQSPSSLSASVGDRVTITCRASESISSWLAWYQQKPGKAPKLLIYDASSLESGVPSRFSGSGSGTDFTLTISSLQPEDFATYYCQQGDSFPFTFGQGTKLEIK
log10 of Kd: -0.50
--
binder: 38A6 (antibody, V domains shown, also called 780_46) VH: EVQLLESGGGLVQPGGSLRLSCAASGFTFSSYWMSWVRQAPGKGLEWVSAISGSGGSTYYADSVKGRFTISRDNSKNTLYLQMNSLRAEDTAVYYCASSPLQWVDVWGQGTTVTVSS VL: DIQMTQSPSSLSASVGDRVTITCRASQDISRWLGWYQQKPGKAPKLLIYAASTLQSGVPSRFSGSGSGTDFTLTISSLQPEDFATYYCQQANSFPFTFGPGTKLEIK
log10 of Kd: 0.07
--
binder: 33C4 (antibody, V domains shown, also called 780_39) VH: QVQLVQSGAEVKKPGSSVKVSCKASGGTFSSSVISWVRQAPGQGLEWMGGIIPIFGTANYAQKFQGRVTITADESTSTAYMELSSLRSEDTAVYYCAREGLGCSGGSCYSGYYYGMDVWGQGTTVTVSS VL: DIVMTQSPLSLPVTPGEPASISCRSSQSLLHSNGYNYLDWYLQKPGQSPQLLIYEASSLHTGVPDRFSGSGSGTDFTLKISRVEAEDVGVYYCMQGSHWPYTFGQGTKLEIK
log10 of Kd: 0.83
--
binder: 39G8 (antibody, V domains shown) VH: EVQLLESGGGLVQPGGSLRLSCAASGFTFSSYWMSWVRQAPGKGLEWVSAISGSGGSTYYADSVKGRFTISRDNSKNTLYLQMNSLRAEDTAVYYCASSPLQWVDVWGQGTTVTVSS VL: DIQMTQSPSSLSASVGDRVTITCRASQGISPWLAWYQQKPGKAPKLLIYDASKLETGVPSRFSGSGSGTDFTLTISSLQPEDFATYYCQQAYSFPFTFGGGTKVEIK
log10 of Kd: 0.41
--
binder: 31B1 (antibody, V domains shown, also called 780_38; 33B1 and 31B2 (apparent misprints)) VH: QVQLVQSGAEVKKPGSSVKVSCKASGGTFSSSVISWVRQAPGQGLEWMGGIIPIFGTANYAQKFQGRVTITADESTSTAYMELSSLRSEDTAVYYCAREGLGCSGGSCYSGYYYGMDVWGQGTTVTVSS VL: DIVMTQSPLSLPVTPGEPASISCRSSQSLLHSNGYNYLDWYLQKPGQSPQLLIYEASSLHSGVPDRFSGSGSGTDFTLKISRVEAEDVGVYYCMQGTHWPYTFGQGTKVEIK
log10 of Kd: 0.82

Let's switch to this binder now.
Record 38A10 (antibody, V domains shown) VH: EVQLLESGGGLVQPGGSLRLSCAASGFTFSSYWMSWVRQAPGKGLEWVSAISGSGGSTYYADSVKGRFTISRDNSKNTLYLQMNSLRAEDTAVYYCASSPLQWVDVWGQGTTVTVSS VL: DIQMTQSPSSLSASVGDRVTITCRASQSISTWLAWYQQKPGKAPKLLIYDASRLQNGVPSRFSGSGSGTDFTLTISSLQPEDFATYYCQQGDSFPFTFGPGTKVDIK , field log10 of Kd: 0.68

The reported numbers originate from patent US20230416363A1.
